Source: ChEMBL document CHEMBL4513216

Task for the reader: assign each of the following compounds its reported cytotoxicity at 10 µM.
MEASUREMENT_DESCRIPTION: Toxicity liver stage against HepG2, at 10uM
Format: cell-based
Set-up: test concentration 10 uM, cell line HepG2-A16-CD81EGFP
ASSAY_CONTEXT: human, HepG2-A16-CD81EGFP cells; read-out: INHIBITION
Return type: number; implicit unit %.

q: What does the record list as cytotoxicity at 10 µM for `COC(=O)CSCc1noc(-c2ccc(C)cc2)n1` ?
a: 4.13

q: What does the record list as cytotoxicity at 10 µM for `CCOc1ccc(C(=O)N2CCN(c3nccn3C)CC2)cc1` ?
a: 5.89

q: What does the record list as cytotoxicity at 10 µM for `Cn1cccc1C(=O)N1CCC2(CC1)CN(S(C)(=O)=O)c1ccccc12` ?
a: 4.73

q: What does the record list as cytotoxicity at 10 µM for Cc1ccc2oc(C(=O)N3CCCC(c4noc(C)n4)C3)cc2n1 (stereo unspecified) ?
a: -3.56

q: What does the record list as cytotoxicity at 10 µM for CC(C)c1nc(CN2CCCCC2Cn2cncn2)cs1 (stereo unspecified) ?
a: -5.06

q: What does the record list as cytotoxicity at 10 µM for COc1ccc(CNC(C)c2ccccc2Cl)c(OC)c1OC (stereo unspecified) ?
a: 8.01

q: What does the record list as cytotoxicity at 10 µM for COc1ccc(-c2nc(CCNC(=O)NCC3CCOC3)co2)cc1 (stereo unspecified) ?
a: -3.1

q: What does the record list as cytotoxicity at 10 µM for Cc1n[nH]cc1C(=O)N1CCCC(c2cccc(-n3ccnc3)n2)C1 (stereo unspecified) ?
a: -9.69

q: What does the record list as cytotoxicity at 10 µM for `COc1cccc2ccn(CC(=O)NCC(C)C)c12` ?
a: -36.5

q: What does the record list as cytotoxicity at 10 µM for `CCc1cc(C(F)(F)F)c2c(C3CCN(C(=O)COC)CC3)noc2n1` ?
a: 14

q: What does the record list as cytotoxicity at 10 µM for O=C1CC(c2ccc(C(=O)O)cc2)c2ncn(-c3ccc(F)cc3)c2N1 (stereo unspecified) ?
a: -3.67
